system: BDF1 mice, P388 leukemia ip, median survival T/C; assay: NCI In Vivo Anticancer Drug Screen. Data for tumor model P388 Leukemia (intraperitoneal) in B6D2F1 (BDF1) mice; conditions: endpoint: median survival time; dose: 25.0 mg/kg/injection; schedule: Q01DX001 (ip); vehicle: saline with Tween-80; higher = longer survival
Inconclusive results and toxic doses are left out.
Each entry below carries its reported T/C.

Reference set (4 entries):
COC(=O)C1(C)CC2C(C)(CCC3(C)C4=CC=C5C(=CC(=O)C(O)=C5C)C4(C)CCC23C)CC1O (stereo not given); 109 % of control
O=[N+]([O-])c1ccc(N/N=C(\COc2ccccc2)c2ccccc2)c([N+](=O)[O-])c1; 104 % of control
CN1C(=O)C(Br)=C(c2cccs2)C1=O; 109 % of control
Oc1c(-c2ccccc2)cc(-[n+]2c(-c3ccccc3)cc(-c3ccc(-c4ccccc4)cc3)cc2-c2ccccc2)cc1-c1ccccc1; 107 % of control

For the next question, use this compound.
Would you mind telling me what T/C value was observed for CC12CCC(Cl)CC1=CCC1C2CCC2(C)C1CCCN2CCCl (stereo not given) ?
113 % of control
